- METHOD_DESCRIPTION: in vivo
- Design: species or system Sprague-Dawley (SD) rats
- CONDITION_SUMMARY: Sprague-Dawley, plasma; 1.5 h after oral CNP, rat
concentration at 1.5 h reference
PARAMETER_MEASURED: concentration at 1.5 h (ng/mL)

[
  {
    "COMPOUND": "CC(C)=CCC[C@](C)(O[C@@H]1O[C@H](CO)[C@@H](O)[C@H](O)[C@H]1O)[C@H]1CC[C@]2(C)[C@@H]1[C@H](O)C[C@@H]1[C@@]3(C)CC[C@H](O)C(C)(C)[C@@H]3[C@@H](O[C@@H]3O[C@H](CO)[C@@H](O)[C@H](O)[C@H]3O)C[C@]12C [GRg1, ginsenoside Rg1]",
    "RECORDED_RESULT": 0.43
  },
  {
    "COMPOUND": "CC(C)=CCC[C@](C)(O[C@@H]1O[C@H](CO)[C@@H](O)[C@H](O)[C@H]1O)[C@H]1CC[C@]2(C)[C@@H]1[C@H](O)C[C@@H]1[C@@]3(C)CC[C@H](O[C@@H]4O[C@H](CO)[C@@H](O)[C@H](O)[C@H]4O[C@@H]4O[C@H](CO)[C@@H](O)[C@H](O)[C@H]4O)C(C)(C)[C@@H]3CC[C@]12C [GRd, ginsenoside Rd]",
    "RECORDED_RESULT": 12.8
  },
  {
    "COMPOUND": "CC(C)=CCC[C@](C)(O[C@@H]1O[C@H](CO[C@@H]2O[C@H](CO)[C@@H](O)[C@H](O)[C@H]2O)[C@@H](O)[C@H](O)[C@H]1O)[C@H]1CC[C@]2(C)[C@@H]1[C@H](O)C[C@@H]1[C@@]3(C)CC[C@H](O[C@@H]4O[C@H](CO)[C@@H](O)[C@H](O)[C@H]4O[C@@H]4O[C@H](CO)[C@@H](O)[C@H](O)[C@H]4O)C(C)(C)[C@@H]3CC[C@]12C [GRb1, ginsenoside Rb1]",
    "RECORDED_RESULT": 54.6
  }
]

###

Measured pIC50, listed per entry.
- Test system: CYP2C9
- METHOD_DESCRIPTION: in vitro
- CONDITION_SUMMARY: microsomes
pIC50: −log10 of the molar value.
PARAMETER_MEASURED: pIC50

[
  {
    "COMPOUND": "O=C(/C=C/c1ccc(O)cc1)C1=C(O)C2=C(O[C@H]([C@@H](O)[C@H](O)[C@H](O)CO)[C@H]2C2=C(O)/C(=C(O)/C=C/c3ccc(O)cc3)C(=O)C(O)([C@@H]3O[C@H](CO)[C@@H](O)[C@H](O)[C@H]3O)C2=O)C(O)([C@@H]2O[C@H](CO)[C@@H](O)[C@H](O)[C@H]2O)C1=O (stereo partly drawn) [A8, anhydroxysafflor yellow B]",
    "PARAMETER_MEASURED": "pIC50",
    "LIMIT_QUALIFIER": "=",
    "RECORDED_RESULT": 5.92
  },
  {
    "COMPOUND": "O=C(O)[C@H]1OC(Oc2cc3oc(-c4ccc(O)cc4)cc(=O)c3c(O)c2OC2O[C@H](CO)[C@@H](O)[C@H](O)[C@H]2O)[C@H](O)[C@@H](O)[C@@H]1O (stereo partly drawn) [A15]",
    "PARAMETER_MEASURED": "pIC50",
    "LIMIT_QUALIFIER": "<",
    "RECORDED_RESULT": 3.70
  },
  {
    "COMPOUND": "O=c1c(OC2O[C@H](CO)[C@@H](O)[C@H](O)[C@H]2O)c(-c2ccc(O)cc2)oc2cc(O)c(O)c(O)c12 (stereo partly drawn) [A6, 6-hydoxykaempferol-3-O-glucoside]",
    "PARAMETER_MEASURED": "pIC50",
    "LIMIT_QUALIFIER": "=",
    "RECORDED_RESULT": 4.25
  },
  {
    "COMPOUND": "C[C@@H]1OC(OC[C@H]2OC(Oc3c(-c4ccc(O)cc4)oc4cc(O)c(OC5O[C@H](CO)[C@@H](O)[C@H](O)[C@H]5O)c(O)c4c3=O)[C@H](O)[C@@H](O)[C@@H]2O)[C@H](O)[C@H](O)[C@H]1O (stereo partly drawn) [A12]",
    "PARAMETER_MEASURED": "pIC50",
    "LIMIT_QUALIFIER": "<",
    "RECORDED_RESULT": 3.70
  },
  {
    "COMPOUND": "O=c1c(OC2O[C@H](CO)[C@@H](O)[C@H](O)[C@H]2O)c(-c2ccc(O)cc2)oc2cc(OC3O[C@H](CO)[C@@H](O)[C@H](O)[C@H]3O)c(OC3O[C@H](CO)[C@@H](O)[C@H](O)[C@H]3O)c(O)c12 (stereo partly drawn) [A10]",
    "PARAMETER_MEASURED": "pIC50",
    "LIMIT_QUALIFIER": "=",
    "RECORDED_RESULT": 4.41
  },
  {
    "COMPOUND": "O=c1c(O[C@@H]2O[C@H](CO)[C@@H](O)[C@H](O)[C@H]2O)c(-c2ccc(O)cc2)oc2cc(O)c(O[C@@H]3O[C@H](CO)[C@@H](O)[C@H](O)[C@H]3O)c(O)c12 [A13, 6-hydroxykaempferol-3,6-di-O-glucoside]",
    "PARAMETER_MEASURED": "pIC50",
    "LIMIT_QUALIFIER": "=",
    "RECORDED_RESULT": 4.03
  }
]
